test: Clinical pharmacokinetics in plasma after single oral administration of A. paniculata extract; type: in vivo, human; conditions: human; parent compound in plasma; n = 4; single oral dose of extract (60 mg andrographolide); median
property label: half-life (min)

Below: 2 compounds and their reported half-life.
- compound: "C=C1CC[C@@H]2[C@](C)(CO[C@@H]3O[C@H](CO)[C@@H](O)[C@H](O)[C@H]3O)CCC[C@@]2(C)[C@@H]1CCC1=CCOC1=O [AP4, neoandrographolide]"
  half-life, min: 13.2
- compound: "C=C1CC[C@@H]2[C@](C)(CO)[C@H](O)CC[C@@]2(C)[C@@H]1/C=C/C1=CCOC1=O [AP3, 14-deoxy-11, 12-didehydroandrographolide]"
  half-life, min: 82.8

P: C=C1CC[C@@H]2[C@](C)(CO)[C@H](O)CC[C@@]2(C)[C@@H]1C/C=C1/C(=O)OC[C@H]1O [AP1, andrographolide]
Q: C=C1CC[C@@H]2[C@](C)(CO)[C@H](O)CC[C@@]2(C)[C@@H]1CCC1=CCOC1=O [AP6, 14-deoxyandrographolide]
When their half-life values are compared, which is larger, P or Q ? Label of pick, please. P
(P: 76.2 min, Q: 13.8 min)

----------
experiment: Stability in urine under different storage conditions; assay type: physicochemical, human; details: Freeze–thaw stability 5 cycles, 500.00 ng/mL (MQC)
property label: Measured concentration (ng/mL)

- compound: "C=C1CC[C@@H]2[C@](C)(CO)[C@H](O)CC[C@@]2(C)[C@@H]1CCC1=CCOC1=O [AP6, 14-deoxyandrographolide]"
  measurement units: "ng/mL"
  numeric readout: 470.16
- compound: "C=C1CC[C@@H]2[C@](C)(CO)[C@H](O)CC[C@@]2(C)[C@@H]1/C=C/C1=CCOC1=O [AP3, 14-deoxy-11, 12-didehydroandrographolide]"
  measurement units: "ng/mL"
  numeric readout: 459.54
- compound: "C=C1CC[C@@H]2[C@](C)(CO)[C@H](O)CC[C@@]2(C)[C@@H]1C/C=C1/C(=O)OC[C@H]1O [AP1, andrographolide]"
  measurement units: "ng/mL"
  numeric readout: 470.05
- compound: "C=C1CC[C@@H]2[C@](C)(CO[C@@H]3O[C@H](CO)[C@@H](O)[C@H](O)[C@H]3O)CCC[C@@]2(C)[C@@H]1CCC1=CCOC1=O [AP4, neoandrographolide]"
  measurement units: "ng/mL"
  numeric readout: 464.68

----------
settings: plasma; Long term stability 3 months at − 80 °C; 500.00 ng/mL (MQC)
property label: %Accuracy (%)

- compound: "C=C1CC[C@@H]2[C@](C)(CO)[C@H](O)CC[C@@]2(C)[C@@H]1/C=C/C1=CCOC1=O [AP3, 14-deoxy-11, 12-didehydroandrographolide]"
  measurement units: "%"
  %Accuracy: 94.32
- compound: "C=C1CC[C@@H]2[C@](C)(CO)[C@H](O)CC[C@@]2(C)[C@@H]1C/C=C1/C(=O)OC[C@H]1O [AP1, andrographolide]"
  measurement units: "%"
  %Accuracy: 91.77
- compound: "C=C1CC[C@@H]2[C@](C)(CO[C@@H]3O[C@H](CO)[C@@H](O)[C@H](O)[C@H]3O)CCC[C@@]2(C)[C@@H]1CCC1=CCOC1=O [AP4, neoandrographolide]"
  measurement units: "%"
  %Accuracy: 94.65
- compound: "C=C1CC[C@@H]2[C@](C)(CO)[C@H](O)CC[C@@]2(C)[C@@H]1CCC1=CCOC1=O [AP6, 14-deoxyandrographolide]"
  measurement units: "%"
  %Accuracy: 92.43

----------
assay: Stability in urine under different storage conditions; type: physicochemical, human; details: Short term stability 8 h at room temperature, 900.00 ng/mL (HQC)
property label: Measured concentration (ng/mL)

- compound: "C=C1CC[C@@H]2[C@](C)(CO)[C@H](O)CC[C@@]2(C)[C@@H]1C/C=C1/C(=O)OC[C@H]1O [AP1, andrographolide]"
  measurement units: "ng/mL"
  Measured concentration: 916.95
- compound: "C=C1CC[C@@H]2[C@](C)(CO)[C@H](O)CC[C@@]2(C)[C@@H]1/C=C/C1=CCOC1=O [AP3, 14-deoxy-11, 12-didehydroandrographolide]"
  measurement units: "ng/mL"
  Measured concentration: 916.89
- compound: "C=C1CC[C@@H]2[C@](C)(CO)[C@H](O)CC[C@@]2(C)[C@@H]1CCC1=CCOC1=O [AP6, 14-deoxyandrographolide]"
  measurement units: "ng/mL"
  Measured concentration: 921.74
- compound: "C=C1CC[C@@H]2[C@](C)(CO[C@@H]3O[C@H](CO)[C@@H](O)[C@H](O)[C@H]3O)CCC[C@@]2(C)[C@@H]1CCC1=CCOC1=O [AP4, neoandrographolide]"
  measurement units: "ng/mL"
  Measured concentration: 925.37

----------
test: Stability in urine under different storage conditions; format: physicochemical, human; conditions: Short term stability 8 h at room temperature, 900.00 ng/mL (HQC)
property label: %Accuracy (%)

- molecule: "C=C1CC[C@@H]2[C@](C)(CO)[C@H](O)CC[C@@]2(C)[C@@H]1/C=C/C1=CCOC1=O [AP3, 14-deoxy-11, 12-didehydroandrographolide]"
  %Accuracy (%): 101.88
- molecule: "C=C1CC[C@@H]2[C@](C)(CO)[C@H](O)CC[C@@]2(C)[C@@H]1CCC1=CCOC1=O [AP6, 14-deoxyandrographolide]"
  %Accuracy (%): 102.42
- molecule: "C=C1CC[C@@H]2[C@](C)(CO[C@@H]3O[C@H](CO)[C@@H](O)[C@H](O)[C@H]3O)CCC[C@@]2(C)[C@@H]1CCC1=CCOC1=O [AP4, neoandrographolide]"
  %Accuracy (%): 102.82
- molecule: "C=C1CC[C@@H]2[C@](C)(CO)[C@H](O)CC[C@@]2(C)[C@@H]1C/C=C1/C(=O)OC[C@H]1O [AP1, andrographolide]"
  %Accuracy (%): 101.88

----------
test: Clinical pharmacokinetics in plasma after single oral administration of A. paniculata extract; type: in vivo, human; conditions: human; parent compound in plasma; n = 4; single oral dose of extract (60 mg andrographolide); median
property label: Tmax (h)

The following compounds have reported results that may help.
- compound: "C=C1CC[C@@H]2[C@](C)(CO)[C@H](O)CC[C@@]2(C)[C@@H]1CCC1=CCOC1=O [AP6, 14-deoxyandrographolide]"
  measurement units: "h"
  Tmax: 1.5
- compound: "C=C1CC[C@@H]2[C@](C)(CO)[C@H](O)CC[C@@]2(C)[C@@H]1/C=C/C1=CCOC1=O [AP3, 14-deoxy-11, 12-didehydroandrographolide]"
  measurement units: "h"
  Tmax: 1.5

P: C=C1CC[C@@H]2[C@](C)(CO[C@@H]3O[C@H](CO)[C@@H](O)[C@H](O)[C@H]3O)CCC[C@@]2(C)[C@@H]1CCC1=CCOC1=O [AP4, neoandrographolide]
Q: C=C1CC[C@@H]2[C@](C)(CO)[C@H](O)CC[C@@]2(C)[C@@H]1C/C=C1/C(=O)OC[C@H]1O [AP1, andrographolide]
Which one would you say has the larger Tmax value: P , or Q ? Identify your selection by its label. P

----------
test: Stability in urine under different storage conditions; format: physicochemical, human; settings: Long term stability 3 months at − 80 °C, 900.00 ng/mL (HQC)
property label: Measured concentration (ng/mL)

- molecule: "C=C1CC[C@@H]2[C@](C)(CO[C@@H]3O[C@H](CO)[C@@H](O)[C@H](O)[C@H]3O)CCC[C@@]2(C)[C@@H]1CCC1=CCOC1=O [AP4, neoandrographolide]"
  measurement units: "ng/mL"
  numeric readout: 852.94
- molecule: "C=C1CC[C@@H]2[C@](C)(CO)[C@H](O)CC[C@@]2(C)[C@@H]1CCC1=CCOC1=O [AP6, 14-deoxyandrographolide]"
  measurement units: "ng/mL"
  numeric readout: 893.39
- molecule: "C=C1CC[C@@H]2[C@](C)(CO)[C@H](O)CC[C@@]2(C)[C@@H]1/C=C/C1=CCOC1=O [AP3, 14-deoxy-11, 12-didehydroandrographolide]"
  measurement units: "ng/mL"
  numeric readout: 883.61
- molecule: "C=C1CC[C@@H]2[C@](C)(CO)[C@H](O)CC[C@@]2(C)[C@@H]1C/C=C1/C(=O)OC[C@H]1O [AP1, andrographolide]"
  measurement units: "ng/mL"
  numeric readout: 882.74

----------
assay: Stability in urine under different storage conditions; type: physicochemical, human; details: Freeze–thaw stability 5 cycles, 900.00 ng/mL (HQC)
property label: Measured concentration (ng/mL)

- compound: "C=C1CC[C@@H]2[C@](C)(CO)[C@H](O)CC[C@@]2(C)[C@@H]1C/C=C1/C(=O)OC[C@H]1O [AP1, andrographolide]"
  numeric readout: 889.00
- compound: "C=C1CC[C@@H]2[C@](C)(CO)[C@H](O)CC[C@@]2(C)[C@@H]1CCC1=CCOC1=O [AP6, 14-deoxyandrographolide]"
  numeric readout: 924.91
- compound: "C=C1CC[C@@H]2[C@](C)(CO)[C@H](O)CC[C@@]2(C)[C@@H]1/C=C/C1=CCOC1=O [AP3, 14-deoxy-11, 12-didehydroandrographolide]"
  numeric readout: 901.72
- compound: "C=C1CC[C@@H]2[C@](C)(CO[C@@H]3O[C@H](CO)[C@@H](O)[C@H](O)[C@H]3O)CCC[C@@]2(C)[C@@H]1CCC1=CCOC1=O [AP4, neoandrographolide]"
  numeric readout: 910.07

All figures here come from paper PMC9924185.
